Biological target: human PPARγ ligand-binding domain (Homo sapiens)
Construct: The kit uses the human-derived recombinant PPARγ LBD tagged with an N-terminal GST-tag; purchased Invitrogen
Sequence (P37231 238-503 limits assumed): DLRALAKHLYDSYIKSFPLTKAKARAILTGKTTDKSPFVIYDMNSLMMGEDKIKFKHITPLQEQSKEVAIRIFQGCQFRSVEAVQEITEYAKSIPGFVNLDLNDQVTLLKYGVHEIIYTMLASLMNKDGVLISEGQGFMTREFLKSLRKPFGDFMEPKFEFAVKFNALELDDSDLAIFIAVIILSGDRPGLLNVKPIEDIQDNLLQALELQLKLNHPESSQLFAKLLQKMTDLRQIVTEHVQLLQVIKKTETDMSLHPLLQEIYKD
Test: PolarScreen PPARγ-Competitor fluorescence polarization ligand binding assay
Conditions: read-out: Kd (dissociation constant)
I'd appreciate it if you could supply Kd values for the items below.
Numbers only, in µM.

Reference set (2 entries):
{"molecule": "Oc1c(Br)ccc(Oc2ccc(Br)cc2Br)c1Br [3-OH-BDE-47]", "Kd, µM": 0.13}
{"molecule": "[Cl][Sn]([c]1ccccc1)([c]1ccccc1)[c]1ccccc1 [TPT, triphenyltin chloride]", "Kd, µM": 0.9}

Let us move to another entry and its Kd.
Ask | Please give the measured Kd for this molecule: Oc1cc(Oc2cc(Br)c(Br)cc2Br)c(Br)cc1Br [5´-OH-BDE-99]
Reply | 15.7

* * *

I'd appreciate it if you could supply Kd values for the items below.
molecular target: human PPARγ ligand-binding domain (Homo sapiens); construct: The kit uses the human-derived recombinant PPARγ LBD tagged with an N-terminal GST-tag; purchased Invitrogen; assay: PolarScreen PPARγ-Competitor fluorescence polarization ligand binding assay; settings: read-out: Kd (dissociation constant)

Reference set (2 entries):
{"smiles": "Oc1cc(Br)cc(Br)c1Oc1cc(Br)c(Br)cc1Br", "Kd": "> 26.1 µM"}
{"smiles": "Brc1ccc(Oc2cc(Br)c(Br)cc2Br)c(Br)c1", "Kd": "> 130 µM"}

Let us move to another entry and its Kd.
Ask | Please give the measured Kd for this molecule: CC(C)(c1ccc(O)cc1)c1ccc(O)cc1
Reply | > 130 µM

* * *

biological target: human PPARγ ligand-binding domain (Homo sapiens, UniProt P37231); construct: The kit uses the human-derived recombinant PPARγ LBD tagged with an N-terminal GST-tag; purchased Invitrogen; experiment: PolarScreen PPARγ-Competitor fluorescence polarization ligand binding assay; details: read-out: IC50
pIC50: −log10 of the molar value.
reported_property: pIC50

{"compound": "CCCCC(CC)COC(=O)c1ccccc1C(=O)OCC(CC)CCCC (centres unmarked) [DEHP, di-(2-ethylhexyl) phthalate]", "reported_property": "pIC50", "result": "< 3.60"}
{"compound": "CC(C)(c1ccc(O)cc1)c1ccc(O)cc1", "reported_property": "pIC50", "result": "< 3.60"}
{"compound": "Brc1ccc(Oc2ccc(Br)cc2Br)c(Br)c1", "reported_property": "pIC50", "result": "< 4.92"}

# return pIC50 for each item in the list
1. Oc1cc(Oc2cc(Br)c(Br)cc2Br)c(Br)cc1Br
2. Oc1cc(Br)cc(Br)c1Oc1ccc(Br)cc1Br

Reply |
4.52
< 5.00

# return pIC50 for each item in the list
1. [Cl][Sn]([c]1ccccc1)([c]1ccccc1)[c]1ccccc1 [TPT, triphenyltin chloride]
2. Oc1c(Cl)cc(Cl)cc1Cl
3. Oc1cc(Br)cc(Br)c1Oc1cc(Br)c(Br)cc1Br

Reply |
[5.76, 4.00, "< 4.30"]
